assayed.system: AChE (from electric eel) (Electrophorus electricus, UniProt O42275)
Construct: AChE (from electric eel); from tissue
Sequence (O42275 24-633): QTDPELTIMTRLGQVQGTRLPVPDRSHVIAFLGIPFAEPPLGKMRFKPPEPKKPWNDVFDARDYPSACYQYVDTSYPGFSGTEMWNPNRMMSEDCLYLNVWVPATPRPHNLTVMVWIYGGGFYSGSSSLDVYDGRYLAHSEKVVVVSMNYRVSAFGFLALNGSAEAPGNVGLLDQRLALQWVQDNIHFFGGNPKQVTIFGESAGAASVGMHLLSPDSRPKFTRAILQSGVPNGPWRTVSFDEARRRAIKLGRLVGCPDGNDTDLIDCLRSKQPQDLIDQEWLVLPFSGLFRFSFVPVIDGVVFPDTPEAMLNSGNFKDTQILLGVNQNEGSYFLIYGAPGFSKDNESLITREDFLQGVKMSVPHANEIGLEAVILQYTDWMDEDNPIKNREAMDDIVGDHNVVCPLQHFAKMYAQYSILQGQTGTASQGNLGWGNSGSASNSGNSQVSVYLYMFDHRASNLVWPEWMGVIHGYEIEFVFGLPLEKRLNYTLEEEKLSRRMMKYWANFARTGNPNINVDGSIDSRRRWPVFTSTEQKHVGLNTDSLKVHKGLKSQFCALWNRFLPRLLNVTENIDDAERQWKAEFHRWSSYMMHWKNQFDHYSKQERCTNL
measurement.protocol: biochemical
Format: biochemical
Assignment: determine reported SI (selectivity index) = K I (AChE)/ K I (BChE) for the given compounds.
One number for each entry.

Incoming: What measured SI (selectivity index) = K I (AChE)/ K I (BChE) is associated with COc1ccc(C2=NN(c3nc(-c4ccc(Cl)cc4Cl)cs3)C(c3ccc(C)s3)C2)cc1OC (stereo not shown) [Compound 3h] on AChE (from electric eel) (Electrophorus electricus, UniProt O42275)?
Outgoing: 0.655

Incoming: Check COc1ccc(C2=NN(c3nc(-c4ccc(F)cc4F)cs3)C(c3ccc(C)s3)C2)cc1OC (stereo not shown) [Compound 3i] too.
Outgoing: 0.332

Incoming: Request: COc1ccc(C2=NN(c3nc(-c4ccc(C)cc4)cs3)C(c3ccc(C)s3)C2)cc1OC (stereo not shown) [Compound 3b]
Outgoing: 0.361

Incoming: Please do the same for COc1ccc(-c2csc(N3N=C(c4ccc(OC)c(OC)c4)CC3c3ccc(C)s3)n2)cc1 (stereo not shown) [Compound 3c] as well.
Outgoing: 1.016

Incoming: Moving on to COc1ccc(C2=NN(c3nc(-c4ccc([N+](=O)[O-])cc4)cs3)C(c3ccc(C)s3)C2)cc1OC (stereo not shown) [Compound 3f]
Outgoing: 0.039

Incoming: Let us now turn to COc1ccc(C2=NN(c3nc(-c4ccc(C#N)cc4)cs3)C(c3ccc(C)s3)C2)cc1OC (stereo not shown) [Compound 3g]
Outgoing: 0.057

Now consider a different compound.
Incoming: Hello, I am looking for reported SI (selectivity index) = K I (AChE)/ K I (BChE) with AChE (from electric eel) (Electrophorus electricus, UniProt O42275) for COc1ccc(C2=NN(c3nc(-c4cccc([N+](=O)[O-])c4)cs3)C(c3ccc(C)s3)C2)cc1OC (stereo not shown) [Compound 3j] . Could you help?
Outgoing: 0.178

====

measurement.protocol: MTT cytotoxicity test on HUVEC cell line
Assay type: cell-based
experimental.conditions: human, HUVEC cells (healthy cell line)
Assign viability at 24 h, 100 µM to each entry below.
Answers are plain numbers, in %.

Hello, I would appreciate it if you could give viability at 24 h, 100 µM for each entry below.
1. COc1ccc(C2=NN(c3nc(-c4ccc(Cl)cc4)cs3)C(c3ccc(C)s3)C2)cc1OC (stereo not shown) [Compound 3d]
2. COc1ccc(C2=NN(c3nc(-c4ccc([N+](=O)[O-])cc4)cs3)C(c3ccc(C)s3)C2)cc1OC (stereo not shown) [Compound 3f]
3. COc1ccc(C2=NN(c3nc(-c4ccccc4)cs3)C(c3ccc(C)s3)C2)cc1OC (stereo not shown) [Compound 3a]
4. COc1ccc(C2=NN(c3nc(-c4ccc(F)cc4F)cs3)C(c3ccc(C)s3)C2)cc1OC (stereo not shown) [Compound 3i]
5. COc1ccc(C2=NN(c3nc(-c4ccc(C)cc4)cs3)C(c3ccc(C)s3)C2)cc1OC (stereo not shown) [Compound 3b]
6. COc1ccc(C2=NN(c3nc(-c4ccc(C#N)cc4)cs3)C(c3ccc(C)s3)C2)cc1OC (stereo not shown) [Compound 3g]
7. COc1ccc(C2=NN(c3nc(-c4cccc([N+](=O)[O-])c4)cs3)C(c3ccc(C)s3)C2)cc1OC (stereo not shown) [Compound 3j]
8. COc1ccc(-c2csc(N3N=C(c4ccc(OC)c(OC)c4)CC3c3ccc(C)s3)n2)cc1 (stereo not shown) [Compound 3c]

Outgoing:
1: 126; 2: 86; 3: 99.2; 4: 86.4; 5: 133; 6: 94; 7: 102; 8: 97.2

Quick batch: viability at 24 h, 100 µM for everything below.
1. COc1ccc(C2=NN(c3nc(-c4ccc(F)cc4)cs3)C(c3ccc(C)s3)C2)cc1OC (stereo not shown) [Compound 3e]
2. COc1ccc(C2=NN(c3nc(-c4ccc(Cl)cc4Cl)cs3)C(c3ccc(C)s3)C2)cc1OC (stereo not shown) [Compound 3h]

Outgoing:
1: 118; 2: 138

====

assayed.system: BChE (from equine serum) (Equus caballus)
Construct: BChE (from equine serum)
measurement.protocol: biochemical
experimental.conditions: equine serum BChE, BChI substrate, 37 °C, pH 8.0
Give measured IC50 for each item. Keep answers brief.
Show the value, then the unit it is measured in.

These solved cases illustrate the format of a correct answer.
Incoming: Can you look up the measured IC50 of COc1ccc(C2=NN(c3nc(-c4cccc([N+](=O)[O-])c4)cs3)C(c3ccc(C)s3)C2)cc1OC (stereo not shown) for me?
Outgoing: 4.92 µM

Incoming: Try the compound COc1ccc(C2=NN(c3nc(-c4ccc(Cl)cc4)cs3)C(c3ccc(C)s3)C2)cc1OC (stereo not shown)
Outgoing: 6.03 µM

Incoming: Note, next up: COc1ccc(C2=NN(c3nc(-c4ccc([N+](=O)[O-])cc4)cs3)C(c3ccc(C)s3)C2)cc1OC (stereo not shown)
Outgoing: 4.25 µM

Incoming: # iterate: COc1ccc(C2=NN(c3nc(-c4ccc(F)cc4)cs3)C(c3ccc(C)s3)C2)cc1OC (stereo not shown)
Outgoing: 3.32 µM

Kindly give each listed record's IC50.
1. COc1ccc(C2=NN(c3nc(-c4ccc(C#N)cc4)cs3)C(c3ccc(C)s3)C2)cc1OC (stereo not shown)
2. COc1ccc(C2=NN(c3nc(-c4ccccc4)cs3)C(c3ccc(C)s3)C2)cc1OC (stereo not shown)
3. COc1ccc(C2=NN(c3nc(-c4ccc(Cl)cc4Cl)cs3)C(c3ccc(C)s3)C2)cc1OC (stereo not shown)
4. COc1ccc(-c2csc(N3N=C(c4ccc(OC)c(OC)c4)CC3c3ccc(C)s3)n2)cc1 (stereo not shown)
5. COc1ccc(C2=NN(c3nc(-c4ccc(F)cc4F)cs3)C(c3ccc(C)s3)C2)cc1OC (stereo not shown)
6. COc1ccc(C2=NN(c3nc(-c4ccc(C)cc4)cs3)C(c3ccc(C)s3)C2)cc1OC (stereo not shown)

Outgoing:
1: 2.09 µM; 2: 4.3 µM; 3: 4.99 µM; 4: 3.07 µM; 5: 7.37 µM; 6: 4.15 µM

====

assayed.system: AChE (from electric eel) (Electrophorus electricus, UniProt O42275)
Construct: AChE (from electric eel); from tissue
measurement.protocol: biochemical
Format: biochemical
experimental.conditions: electric eel AChE, ATChI substrate, 37 °C, pH 8.0
// classify: if (IC50 < 0.5 µM) Y else N

Examples from the recorded data:
Incoming: Does COc1ccc(C2=NN(c3nc(-c4ccc(C#N)cc4)cs3)C(c3ccc(C)s3)C2)cc1OC (stereo not shown) have IC50 strictly under 0.5 µM?
Outgoing: Y

Incoming: Also, COc1ccc(C2=NN(c3nc(-c4cccc([N+](=O)[O-])c4)cs3)C(c3ccc(C)s3)C2)cc1OC (stereo not shown) please.
Outgoing: N

Incoming: Lookup COc1ccc(C2=NN(c3nc(-c4ccc(Cl)cc4Cl)cs3)C(c3ccc(C)s3)C2)cc1OC (stereo not shown)
Outgoing: N

Incoming: Okay, and COc1ccc(C2=NN(c3nc(-c4ccc(F)cc4F)cs3)C(c3ccc(C)s3)C2)cc1OC (stereo not shown) ?
Outgoing: N

Incoming: Now try COc1ccc(-c2csc(N3N=C(c4ccc(OC)c(OC)c4)CC3c3ccc(C)s3)n2)cc1 (stereo not shown) .
Outgoing: N

Next:
Incoming: Does the reported IC50 of the following compound sit strictly below 0.5 µM? COc1ccc(C2=NN(c3nc(-c4ccc(C)cc4)cs3)C(c3ccc(C)s3)C2)cc1OC (stereo not shown)
Outgoing: N

Incoming: Same question, COc1ccc(C2=NN(c3nc(-c4ccccc4)cs3)C(c3ccc(C)s3)C2)cc1OC (stereo not shown) this time
Outgoing: N

Incoming: Request: COc1ccc(C2=NN(c3nc(-c4ccc(F)cc4)cs3)C(c3ccc(C)s3)C2)cc1OC (stereo not shown)
Outgoing: Y

Incoming: Now give it for COc1ccc(C2=NN(c3nc(-c4ccc([N+](=O)[O-])cc4)cs3)C(c3ccc(C)s3)C2)cc1OC (stereo not shown) too.
Outgoing: Y

Incoming: Now try COc1ccc(C2=NN(c3nc(-c4ccc(Cl)cc4)cs3)C(c3ccc(C)s3)C2)cc1OC (stereo not shown) .
Outgoing: N

====

assayed.system: BChE (from equine serum) (Equus caballus, UniProt P81908)
Construct: BChE (from equine serum)
Sequence (P81908 whole entry): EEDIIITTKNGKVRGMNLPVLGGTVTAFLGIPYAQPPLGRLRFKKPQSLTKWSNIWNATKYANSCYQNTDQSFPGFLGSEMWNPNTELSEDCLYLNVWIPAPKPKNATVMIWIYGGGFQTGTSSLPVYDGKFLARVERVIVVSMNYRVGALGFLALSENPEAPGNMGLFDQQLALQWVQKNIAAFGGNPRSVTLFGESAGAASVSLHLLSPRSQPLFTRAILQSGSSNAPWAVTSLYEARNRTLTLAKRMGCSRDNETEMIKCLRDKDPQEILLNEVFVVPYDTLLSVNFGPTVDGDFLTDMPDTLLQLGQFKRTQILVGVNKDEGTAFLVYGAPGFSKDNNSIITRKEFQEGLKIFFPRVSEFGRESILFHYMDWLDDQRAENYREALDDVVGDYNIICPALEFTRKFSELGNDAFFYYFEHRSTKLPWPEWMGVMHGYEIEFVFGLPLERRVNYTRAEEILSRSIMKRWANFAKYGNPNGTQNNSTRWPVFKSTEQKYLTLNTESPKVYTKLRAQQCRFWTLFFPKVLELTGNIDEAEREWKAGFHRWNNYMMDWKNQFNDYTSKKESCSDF
measurement.protocol: biochemical
experimental.conditions: Lineweaver–Burk plots; mean ± SEM; read-out: BChE K I
measurement.type: Ki (nM)
Give bare numbers, in nM.

Incoming: Please report the recorded Ki for COc1ccc(C2=NN(c3nc(-c4ccc(F)cc4)cs3)C(c3ccc(C)s3)C2)cc1OC (stereo not shown) .
Outgoing: 1720

Incoming: Same for COc1ccc(C2=NN(c3nc(-c4ccc([N+](=O)[O-])cc4)cs3)C(c3ccc(C)s3)C2)cc1OC (stereo not shown)
Outgoing: 1460

Incoming: Consider next the molecule COc1ccc(C2=NN(c3nc(-c4ccc(C#N)cc4)cs3)C(c3ccc(C)s3)C2)cc1OC (stereo not shown) in the same way.
Outgoing: 789

Incoming: Then COc1ccc(C2=NN(c3nc(-c4ccc(C)cc4)cs3)C(c3ccc(C)s3)C2)cc1OC (stereo not shown) ?
Outgoing: 2220

Incoming: Another molecule to look at: COc1ccc(C2=NN(c3nc(-c4ccc(F)cc4F)cs3)C(c3ccc(C)s3)C2)cc1OC (stereo not shown)
Outgoing: 1590

Would you be so kind as to report Ki for each listed record?
1. COc1ccc(C2=NN(c3nc(-c4ccccc4)cs3)C(c3ccc(C)s3)C2)cc1OC (stereo not shown)
2. COc1ccc(C2=NN(c3nc(-c4ccc(Cl)cc4Cl)cs3)C(c3ccc(C)s3)C2)cc1OC (stereo not shown)
3. COc1ccc(-c2csc(N3N=C(c4ccc(OC)c(OC)c4)CC3c3ccc(C)s3)n2)cc1 (stereo not shown)
4. COc1ccc(C2=NN(c3nc(-c4cccc([N+](=O)[O-])c4)cs3)C(c3ccc(C)s3)C2)cc1OC (stereo not shown)
5. COc1ccc(C2=NN(c3nc(-c4ccc(Cl)cc4)cs3)C(c3ccc(C)s3)C2)cc1OC (stereo not shown)

Outgoing:
1. 1350
2. 1690
3. 1160
4. 2370
5. 1640
